Subject Of Test: T1, SNTB1, Q13884
T1 sequence (Q13884 107-205, limits assumed, looked up): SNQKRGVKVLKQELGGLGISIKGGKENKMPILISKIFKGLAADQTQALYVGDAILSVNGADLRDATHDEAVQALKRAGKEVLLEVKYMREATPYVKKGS
Procedure Details: holdup assay
Design: key: below the threshold = too weak to quantify, mostly under pKd 3.1 to 4
Assay Context: plain residues with an end cap or a label only (N-terminal biotin on a linker: ado-ado)
Result Type: pKd

[[record]]
binder = "TNSKQGETTV [FZD1, Q9UP38]"
result = 4.72

[[record]]
binder = "LVEEEEPMNL [HDAC7, Q8WUI4]"
result = "below the threshold"

[[record]]
binder = "KPDKQEEFYA [SDC3, O75056]"
result = "below the threshold"

[[record]]
binder = "RDYTQSSSSL [GRM5, P41594]"
result = "below the threshold"

[[record]]
binder = "PALKNGQYWV [CSPG4, Q6UVK1]"
result = "below the threshold"

[[record]]
binder = "SQPLLVHDDV [KIT, P10721]"
result = "below the threshold"

[[record]]
binder = "QQGLLPHSSC [TYRO3, Q06418]"
result = "below the threshold"

[[record]]
binder = "EAVTVESTSL [SLC22A11, Q9NSA0]"
result = 3.94

[[record]]
binder = "HYPASPDSWV [CTNND2, Q9UQB3]"
result = 4.23

[[record]]
binder = "PAALPESTHM [SLC9A3, P48764]"
result = "below the threshold"

[[record]]
binder = "SAGADSETHC [SLCO1B1, Q9Y6L6]"
result = 3.87

[[record]]
binder = "STYCDYTIEI [FAM71C, Q8NEG0]"
result = "below the threshold"

[[record]]
binder = "SSSVNVSSNL [CXCR1, P25024]"
result = "below the threshold"

[[record]]
binder = "RSPVATATSC [DUSP5, Q16690]"
result = "below the threshold"

[[record]]
binder = "NISARRFTLC [FAM167B, Q9BTA0]"
result = 3.52

[[record]]
binder = "SQDPKKPSRV [CBY2, Q8NA61]"
result = "below the threshold"

